- System: PPARa:RXRa (NR concentration 270 nM, RXRa partner concentration 90 nM)
- assay.comment: PBM binding z-score (relative to random genomic background probes); higher = stronger binding; sequences stand for … in GC…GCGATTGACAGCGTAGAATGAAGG
reported.endpoint: PBM binding z-score
Simply state the number, no unit and no words.

[
  {
    "sequence.record": "TCATATAGGTAAATGCTAGGTTAAAGTCCGATCT",
    "readout.number": 1.7
  },
  {
    "sequence.record": "ACTAGTTGGTCAGCTGATGTCACACACAATTCGG",
    "readout.number": 0.0483
  },
  {
    "sequence.record": "TCTCGGAGGACACGAAAGGACAGAGCTCGACATC",
    "readout.number": -0.148
  },
  {
    "sequence.record": "ATATGTCGGTTACATCCGGGTCATTCAGGCTATG",
    "readout.number": 2.79
  },
  {
    "sequence.record": "ATATGTAGGTTAAGGGTCATTCCGGTTGGTTCGC",
    "readout.number": 6.67
  }
]

Exercise: For PPARa:RXRa (NR concentration 270 nM, RXRa partner concentration 90 nM), provide PBM binding z-score of "GTGCCAAGGTGAATAGGTCGTTGATGAGTAGGCG" please.
Solution: 2.12

Exercise: For PPARa:RXRa (NR concentration 270 nM, RXRa partner concentration 90 nM), provide PBM binding z-score of "TCTGCTAGGTCAACGATGGTCGGCTAATCTGCTA" please.
Solution: 2.9

Exercise: For PPARa:RXRa (NR concentration 270 nM, RXRa partner concentration 90 nM), provide PBM binding z-score of "AATACAAGGTCACTAGGCCAGAGTAGGTACGAAT" please.
Solution: 6.29

Exercise: For PPARa:RXRa (NR concentration 270 nM, RXRa partner concentration 90 nM), provide PBM binding z-score of "AGAATGATGTTATTAAGATCAGGGAATTGCGGTC" please.
Solution: 0.0831

Exercise: For PPARa:RXRa (NR concentration 270 nM, RXRa partner concentration 90 nM), provide PBM binding z-score of "TCTCGGAGGACAAGAAAGGTCAGAGCTCGACATC" please.
Solution: 3.37

Exercise: For PPARa:RXRa (NR concentration 270 nM, RXRa partner concentration 90 nM), provide PBM binding z-score of "AGTAGCAGGCCAAGTTTGGGTCACTCAAACAAAG" please.
Solution: 1.47

Exercise: For PPARa:RXRa (NR concentration 270 nM, RXRa partner concentration 90 nM), provide PBM binding z-score of "GATACAGGGGCAGCTAGAGGCCAGAGTATGGAAA" please.
Solution: 0.26

Exercise: For PPARa:RXRa (NR concentration 270 nM, RXRa partner concentration 90 nM), provide PBM binding z-score of "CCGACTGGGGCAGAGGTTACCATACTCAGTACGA" please.
Solution: 3.62

Exercise: For PPARa:RXRa (NR concentration 270 nM, RXRa partner concentration 90 nM), provide PBM binding z-score of "ATACCAAGGTGATCGTAAGGTCGTTGATACTAAC" please.
Solution: 1.71

Exercise: For PPARa:RXRa (NR concentration 270 nM, RXRa partner concentration 90 nM), provide PBM binding z-score of "ATCTCTATGTAAGACTCAGTTCAGTGAAGAACGC" please.
Solution: -0.231

Exercise: For PPARa:RXRa (NR concentration 270 nM, RXRa partner concentration 90 nM), provide PBM binding z-score of "AGAATGAGGTTAAGATCGGGGAAACAGAATACAT" please.
Solution: 3.65

Exercise: For PPARa:RXRa (NR concentration 270 nM, RXRa partner concentration 90 nM), provide PBM binding z-score of "ACAGACAGGTGATGAAGGTAACTCAGGCTATCAT" please.
Solution: 0.152

Exercise: For PPARa:RXRa (NR concentration 270 nM, RXRa partner concentration 90 nM), provide PBM binding z-score of "CAAACTAGGTCACGAAAGGTCAAAGTAGAATGAC" please.
Solution: 6.77

Exercise: For PPARa:RXRa (NR concentration 270 nM, RXRa partner concentration 90 nM), provide PBM binding z-score of "CCGACTGGGGCAAGGTAACCATAACGCACAGCCA" please.
Solution: 0.552

Exercise: For PPARa:RXRa (NR concentration 270 nM, RXRa partner concentration 90 nM), provide PBM binding z-score of "CCTTACGGGTCACTGACAGATTATAGCATTTGGA" please.
Solution: 5.28

Exercise: For PPARa:RXRa (NR concentration 270 nM, RXRa partner concentration 90 nM), provide PBM binding z-score of "GATACAGGGTCAGCTGGAGGCCAGAGTATGGAAA" please.
Solution: 4.47

Exercise: For PPARa:RXRa (NR concentration 270 nM, RXRa partner concentration 90 nM), provide PBM binding z-score of "TCTGCTAGTTCAGTTGGTCAGCTAACGAGCTGCC" please.
Solution: 0.1

Exercise: For PPARa:RXRa (NR concentration 270 nM, RXRa partner concentration 90 nM), provide PBM binding z-score of "ACAGACAGGTGAGTGAAGCTAACTCAGCTGGACG" please.
Solution: -0.342

Exercise: For PPARa:RXRa (NR concentration 270 nM, RXRa partner concentration 90 nM), provide PBM binding z-score of "TCATAAAGGTAAAGGTGAAAGTCGAACGATATGA" please.
Solution: 3.51

* * *

- Test system: RXRa DBDmut IVT, anti-RXR (DBD mutation: RXRa K156A/R161A, NR concentration 90 nM)
- assay.comment: PBM binding z-score (relative to random genomic background probes); higher = stronger binding; sequences stand for … in GC…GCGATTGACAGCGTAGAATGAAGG
# PBM binding z-score listing for each entry below
Simply state the number, no unit and no words.

Example cases with answers are listed next.
[
  {
    "sequence.record": "TTGCCTAGGTCATGGGCCAGTATACCACGCGAAC",
    "readout.number": 0.413
  },
  {
    "sequence.record": "CCTTACGGGTCAACGTTATAGCACGGGTGGTACG",
    "readout.number": 0.494
  },
  {
    "sequence.record": "AGAATGAGGTTAATATCAGGGAAACAGAATACAT",
    "readout.number": 1.22
  },
  {
    "sequence.record": "CGAACTAGGTCATTGACAGGACAGTGAGTAGTAA",
    "readout.number": 2.41
  },
  {
    "sequence.record": "TATGCAGGGTCAAAGGCCAGAGTACGAATGTCGA",
    "readout.number": 2.39
  }
]

The record that follows has no PBM binding z-score shown yet.
Exercise: For RXRa DBDmut IVT, anti-RXR (DBD mutation: RXRa K156A/R161A, NR concentration 90 nM), provide PBM binding z-score of "ATCTGTAGGTAAAGTTCAGTGAAAGATCGATAGA" please.
Solution: 1.35

* * *

- Tested on: LXRa homodimer (NR concentration 270 nM)
- assay.comment: PBM binding z-score (relative to random genomic background probes); higher = stronger binding; sequences stand for … in GC…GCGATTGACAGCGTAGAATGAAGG
Quick rule: PBM binding z-score of at least -0.07 means Yes, below that means No.

[
  {
    "sequence.record": "CCGACTGGGGCAAGGTTACCATAACGCACAGCCA",
    "class.assignment": "No"
  },
  {
    "sequence.record": "TAGCCTAGGTCATGCGGGCCAGTTTAGTGTCGGC",
    "class.assignment": "Yes"
  },
  {
    "sequence.record": "CCAGACCGGTGAAAGGTAACTCAGTCTGGTACGC",
    "class.assignment": "No"
  }
]

Exercise: Does the reported PBM binding z-score for "ATCTCTAGGTAAAGATAGTTCAGTTAATGCAAAT" fall at or above the -0.07 mark?
Solution: Yes

Exercise: Does the reported PBM binding z-score for "CATACTAGGTCACCGGAAGGTCAAAGTCCGCATG" fall at or above the -0.07 mark?
Solution: Yes

Exercise: Does the reported PBM binding z-score for "GCTTGCAGATCAAGGTTAAGAAAGACTAAGCTAA" fall at or above the -0.07 mark?
Solution: No

* * *

- System: RARa:RXR (NR concentration 270 nM, RXRa partner concentration 90 nM)
- assay.comment: PBM binding z-score (relative to random genomic background probes); higher = stronger binding; sequences stand for … in GC…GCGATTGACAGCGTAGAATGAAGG
Quick rule: PBM binding z-score of at least 0.9 means yes, below that means no.

Recorded results for 5 sequences are shown here.
[
  {
    "sequence.record": "AGTCAAAGTTCATCTAGGTAACGTGAGATATGCT",
    "class.assignment": "yes"
  },
  {
    "sequence.record": "ATCGCTAGGTAAAGATAGTTCAGTGAATGCAAAT",
    "class.assignment": "no"
  },
  {
    "sequence.record": "AGTGAAAGTTCACTAGGTAACGTAAGATTCAGCT",
    "class.assignment": "yes"
  },
  {
    "sequence.record": "GCTAGGTGGTCAGTAAAAGGTCACACACCGGTCG",
    "class.assignment": "yes"
  },
  {
    "sequence.record": "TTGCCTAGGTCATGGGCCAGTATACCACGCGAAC",
    "class.assignment": "yes"
  }
]

Attention now turns to another entry.
Exercise: Does the reported PBM binding z-score for "GGAACGAGGGCAAGTTGATACCAGAGTTTGATGG" fall at or above the 0.9 mark?
Solution: no
